- Measured Target: human TREM2/DAP12 fusion protein (human, UniProt O43914 41-113, limits assumed)
- Sequence (O43914 other isoform, or with tags, fused parts or gaps limits assumed): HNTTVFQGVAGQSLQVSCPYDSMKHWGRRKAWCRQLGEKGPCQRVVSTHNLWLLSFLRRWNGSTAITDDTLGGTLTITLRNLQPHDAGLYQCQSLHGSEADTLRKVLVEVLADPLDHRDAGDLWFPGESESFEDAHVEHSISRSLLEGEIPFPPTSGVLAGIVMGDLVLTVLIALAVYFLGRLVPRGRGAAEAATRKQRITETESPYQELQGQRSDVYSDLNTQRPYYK
- Measurement Notes: cell-based or functional assay
Cut-off 2 FOC on Luciferase activation soluble 10 nM IgG, FOC, inclusive. At or above means criterion met; below means criterion not met.

>>> category("AL2p-15 (antibody, V domains shown, Fab and IgG formats under one id) VH: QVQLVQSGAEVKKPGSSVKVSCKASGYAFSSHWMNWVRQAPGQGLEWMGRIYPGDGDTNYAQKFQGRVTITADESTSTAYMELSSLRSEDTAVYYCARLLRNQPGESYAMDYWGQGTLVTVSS VL: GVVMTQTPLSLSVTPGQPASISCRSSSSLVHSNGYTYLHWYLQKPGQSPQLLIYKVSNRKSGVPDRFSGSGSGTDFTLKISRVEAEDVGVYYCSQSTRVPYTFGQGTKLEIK")
"criterion not met"

Here's the next entry for you.
Ask | Check the entry AL2p-9 (antibody, V domains shown, Fab and IgG formats under one id) VH: QVQLVQSGAEVKKPGSSVKVSCKASGYAFSRSWMNWVRQAPGQGLEWMGRIYPGDGDTNYAQKFQGRVTITADESTSTAYMELSSLRSEDTAVYYCARLLRNQPGASYAMDYWGQGTLVTVSS VL: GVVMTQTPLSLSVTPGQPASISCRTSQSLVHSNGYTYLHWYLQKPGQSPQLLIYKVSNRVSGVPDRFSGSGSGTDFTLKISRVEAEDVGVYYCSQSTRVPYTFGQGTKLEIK : does Luciferase activation soluble 10 nM IgG, FOC equal or exceed 2 FOC?
Reply | criterion met

Values compiled from patent US20200317776A1.
